Please provide measured amyloid nucleation score for the entries that follow.
assay: amyloid nucleation score (Sup35N fusion, yeast selection) (log enrichment); library NNK2; higher = more nucleation; inactive = no reads after selection;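 further: zero at mode of non-aggregating sequences after 7 days selection at 30°C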
Numbers only.

- YGLAFTEDATFFKVCTY: -0.211
- NRTCVLSNPFPFPHNIPGVC: -0.815
- GLKDAIMYSVVTLIRYRQDD: -0.809
- GNVSYHSCVW: 0.449
- RFYDFLFLFIPSRIELIMFR: -0.729
- WGHLFRSPSRSSRFYRVLPA: -0.159

Would you mind giving amyloid nucleation score for every substance in the list below?
1. GNFVHTYNIK
2. KGKTLLYSAKHIVFNR
3. AFNERAYYVGGLTADME
4. PGTFFSLSKWWFIDGVTEPG
5. KLGCYVS
6. LLHAVQDHVGLPTVYRRCSR
7. LSLFISGDYWVIQGNIY

0.526
0.482
0.753
0.178
3.23
2.79
3.65

Would you mind giving amyloid nucleation score for every substance in the list below?
1. LSRSGNAPDMKKLLNFGQTR
2. WKSCWLGIWSEGIYILGEET
3. TLMIYCFFSGFLKGVWMM
4. WLTLGVYELRWMRSPNTGCL
5. VADMVVRT
6. FVHIIESELYSEQTRESHLL
7. YTKSQGAFT

[3.71, -0.284, 0.053, 1.8, 0.806, -0.586, -0.135]

Would you mind giving amyloid nucleation score for every substance in the list below?
1. CVFKVVPLVL
2. HIVRNYFTLTSCAHTIHFAD
3. LYQVRGTY
4. SSWVFITFSYVMRSQVYHLK
5. LVSESTLINSFLQIWFWSTL
6. RLNHGVSRSYDPPRRWAGSR
7. CCWRSNSRNTNVIPNLSLFR
8. SILDATCCLGFYKVFAVGMK

[0.005, -0.861, 0.353, -1.12, -0.324, 0.07, 3.94, -0.669]

Would you mind giving amyloid nucleation score for every substance in the list below?
1. LLLCYYVFASHKFCCGDGVL
2. IQYPLFSCTYEGFFGDRYMA
3. AANWGNRGYMVCEHCVIDV
4. KLANYHLARDSFMVRKHRKG

1: -0.302; 2: -0.495; 3: -0.054; 4: 0.602

The measured amyloid nucleation score associated with ASLFFM reads 0.707
